System: Oryza sativa, (L.) Tebonnet
PROTOCOL TEXT: Rice tolerance to post-transplant applications under flooded paddy conditions (Example 188), ORYSAT (Rice, Tebonnet)
CONDITION DESCRIPTION: Rate 0.0313 kg/ha, rated three to four weeks after treatment
Task for the reader: assign each of the following molecules its reported herbicidal effect rating, ORYSAT (rice tolerance).
Field format: numeric only.

The recorded herbicidal effect rating, ORYSAT (rice tolerance) with Oryza sativa, (L.) Tebonnet for `COC(=O)COc1ccc(C)cc1-c1nsc2ccc(-n3c(=O)cc(C(F)(F)F)n(C)c3=O)cc12` was 2.0

Measured herbicidal effect rating, ORYSAT (rice tolerance) for this entry `Cn1c(C(F)(F)F)cc(=O)n(-c2ccc3snc(-c4ccccc4)c3c2)c1=O` on Oryza sativa, (L.) Tebonnet: 3.0

Summary: `CCc1ccc(-c2nsc3ccc(-n4c(=O)cc(C(F)(F)F)n(C)c4=O)cc23)cc1` , Oryza sativa, (L.) Tebonnet, herbicidal effect rating, ORYSAT (rice tolerance) = 2.0

# lookup: `COc1cc(C)ccc1-c1nsc2ccc(-n3c(=O)cc(C(F)(F)F)n(C)c3=O)cc12` on Oryza sativa, (L.) Tebonnet, herbicidal effect rating, ORYSAT (rice tolerance) = 7.0

Note to self: herbicidal effect rating, ORYSAT (rice tolerance) of `Cc1cc(O)c(-c2nsc3ccc(-n4c(=O)cc(C(F)(F)F)n(C)c4=O)cc23)cc1C` with Oryza sativa, (L.) Tebonnet was 0.0

Measured on Oryza sativa, (L.) Tebonnet, `COC(=O)COc1cc(C)c(C)cc1-c1nsc2ccc(-n3c(=O)cc(C(F)(F)F)n(C)c3=O)cc12` has a documented herbicidal effect rating, ORYSAT (rice tolerance) of 4.0

// molecule COC(=O)C(C)Oc1cc(C)c(C)cc1-c1nsc2ccc(-n3c(=O)cc(C(F)(F)F)n(C)c3=O)cc12 (stereo not shown) , assay Oryza sativa, (L.) Tebonnet, herbicidal effect rating, ORYSAT (rice tolerance) value: 2.0

Reading of herbicidal effect rating, ORYSAT (rice tolerance) for COC(=O)C(C)Oc1ccc(C)cc1-c1nsc2ccc(-n3c(=O)cc(C(F)(F)F)n(C)c3=O)cc12 (stereo not shown) with Oryza sativa, (L.) Tebonnet: 2.0

Record for `Cc1nsc2ccc(-n3c(=O)cc(C(F)(F)F)n(C)c3=O)cc12` under target or system Oryza sativa, (L.) Tebonnet: herbicidal effect rating, ORYSAT (rice tolerance) reported as 4.0

Tested on Oryza sativa, (L.) Tebonnet: `COc1ccc(C)cc1-c1nsc2ccc(-n3c(=O)cc(C(F)(F)F)n(C)c3=O)cc12` . Observed herbicidal effect rating, ORYSAT (rice tolerance): 3.0

---

Can you tell me ORYSAT herbicidal rating (rice tolerance) for the items I'm about to list?
Tested on: Oryza sativa, (L.) Tebonnet
PROTOCOL TEXT: Rice tolerance to post-transplant applications under flooded paddy conditions (Example 187), ORYSAT (Rice, Tebonnet)
CONDITION DESCRIPTION: 0.0320 kg/ha, rated three to four weeks after treatment
# answer = number (no unit)

Field ORYSAT herbicidal rating (rice tolerance) (entry `COc1ccc(C)cc1-c1nsc2cc(F)c(-n3c(=O)cc(C(F)(F)F)n(C)c3=O)cc12` ) reads 5.0

ORYSAT herbicidal rating (rice tolerance) reported for this molecule `COC(=O)COc1cc(Cl)c(C)cc1-c1nsc2ccc(-n3c(=O)cc(C(F)(F)F)n(C)c3=O)cc12` : 2.0

get_value(item= COC(=O)C(C)Oc1ccc(I)cc1-c1nsc2ccc(-n3c(=O)cc(C(F)(F)F)n(C)c3=O)cc12 (stereo not shown) , readout=ORYSAT herbicidal rating (rice tolerance)) returns 4.0

Reported ORYSAT herbicidal rating (rice tolerance) ( `Cc1ccc(OC(C)(C)C(=O)OC(C)(C)C)c(-c2nsc3ccc(-n4c(=O)cc(C(F)(F)F)n(C)c4=O)cc23)c1` ) = 2.0

get_value(item= `COc1cc(Cl)c(C)cc1-c1nsc2ccc(-n3c(=O)cc(C(F)(F)F)n(C)c3=O)cc12` , readout=ORYSAT herbicidal rating (rice tolerance)) returns 1.5

ORYSAT herbicidal rating (rice tolerance) in this record for `Cc1ccc(CS(=O)(=O)NC(=O)c2nsc3ccc(-n4c(=O)cc(C(F)(F)F)n(C)c4=O)cc23)cc1` : 0.0

Notebook: `Cn1c(C(F)(F)F)cc(=O)n(-c2ccc3snc(COCOCc4ccccc4)c3c2)c1=O` , ORYSAT herbicidal rating (rice tolerance) read as 5.0

---

Test system: Sagittaria pygmaea, L.
PROTOCOL TEXT: Preemergence weed control under flooded paddy conditions, SAGPY (Arrowhead (Pygmaea)); further: meaning of each grade not given here
Assay type: in vivo
CONDITION DESCRIPTION: 0.2500 kg/ha; preemergence, flooded paddy; rated three to four weeks after treatment
Answer each item with its documented herbicidal effect rating, SAGPY.
Lab note: write the figure by itself, no unit.

# herbicidal effect rating, SAGPY of `Cc1noc2cc(F)c(-n3c(=O)cc(C(F)(F)F)n(C)c3=O)cc12` = 9.0

Just so you know, measured herbicidal effect rating, SAGPY for `COc1noc2ccc(-n3c(=O)cc(C(F)(F)F)n(C)c3=O)cc12` came out at 0.0

The reported value for `Cc1ccc(OCC(=O)OCCN(C)C)c(-c2nsc3ccc(-n4c(=O)cc(C(F)(F)F)n(C)c4=O)cc23)c1` in terms of herbicidal effect rating, SAGPY is 2.0

---

Test system: Cyperus serotinus, Rottb.
PROTOCOL TEXT: Preemergence weed control under flooded paddy conditions, CYPSE (Flatsedge); further: meaning of each grade not given here
Format: in vivo
CONDITION DESCRIPTION: Rate 0.0620 kg/ha, preemergence weeds, rated three to four weeks after treatment
OBSERVABLE: herbicidal effect rating, CYPSE

Just so you know, measured herbicidal effect rating, CYPSE for `Cn1c(C(F)(F)F)cc(=O)n(-c2ccc3snc(-c4ccccc4OCC(=O)O)c3c2)c1=O` came out at 3.5

// herbicidal effect rating, CYPSE lookup, compound = `CCOc1cccc(-c2nsc3ccc(-n4c(=O)cc(C(F)(F)F)n(C)c4=O)cc23)c1` , result: 5.5

Item: `Cn1c(C(F)(F)F)cc(=O)n(-c2ccc3snc(CO[N+](=O)[O-])c3c2)c1=O` | herbicidal effect rating, CYPSE: 0.0

For reference, reported herbicidal effect rating, CYPSE for `CC(=O)c1nsc2ccc(-n3c(=O)cc(C(F)(F)F)n(C)c3=O)cc12` stands at 3.5

Entry `Cn1c(C(F)(F)F)cc(=O)n(-c2ccc3snc(-c4ccccc4OCC(=O)NS(=O)(=O)CCl)c3c2)c1=O` ; herbicidal effect rating, CYPSE = 6.0

# compound CC(OS(C)(=O)=O)c1nsc2ccc(-n3c(=O)cc(C(F)(F)F)n(C)c3=O)cc12 (stereo not drawn) ; its herbicidal effect rating, CYPSE = 0.0

---

System: Cyperus iria
PROTOCOL TEXT: Preemergence weed control under flooded paddy conditions, CYPIR (Rice Flatsedge); further: meaning of each grade not given here
Type: in vivo
CONDITION DESCRIPTION: Rate 0.1250 kg/ha; preemergence, flooded paddy; rated three to four weeks after treatment
Please provide measured herbicidal effect rating, CYPIR for the entries that follow.

Summary for this molecule, Cn1c(C(F)(F)F)cc(=O)n(-c2ccc3snc(C[S+]([O-])c4ccccc4)c3c2)c1=O (stereo not shown) [Example 394] : herbicidal effect rating, CYPIR is 5.0

Note to self: herbicidal effect rating, CYPIR recorded for COc1ccc(COC(=O)C(C)(C)c2nsc3ccc(-n4c(=O)cc(C(F)(F)F)n(C)c4=O)cc23)cc1 [Example 397] was 9.0

Memo: Cn1c(C(F)(F)F)cc(=O)n(-c2ccc3snc(C(=O)NS(=O)(=O)c4ccccc4)c3c2)c1=O [Example 352] , reported herbicidal effect rating, CYPIR: 7.5

Lab book: herbicidal effect rating, CYPIR of CCOCN(C(=O)c1nsc2ccc(-n3c(=O)cc(C(F)(F)F)n(C)c3=O)cc12)S(C)(=O)=O [Example 370] noted as 9.0

# herbicidal effect rating, CYPIR (molecule: CC(c1nsc2ccc(-n3c(=O)cc(C(F)(F)F)n(C)c3=O)cc12)S(C)(=O)=O (stereo not shown) [Example 590] ) is 7.0

herbicidal effect rating, CYPIR measured on Cn1c(C(F)(F)F)cc(=O)n(-c2ccc3snc(C(=O)NOCc4ccccc4)c3c2)c1=O [Example 400] = 9.0

Note to self: herbicidal effect rating, CYPIR recorded for Cn1c(C(F)(F)F)cc(=O)n(-c2ccc3snc(COC(=O)c4ccccc4)c3c2)c1=O [Example 364] was 9.0

---

Test system: Echinochloa oryzoides (Ard.) Fritsch.
PROTOCOL TEXT: Preemergence weed control under flooded paddy conditions, ECHORC (Watergrass (Calif.))
Assay type: in vivo
CONDITION DESCRIPTION: 0.0620 kg/ha; preemergence, flooded paddy; rated three to four weeks after treatment
Can you tell me ECHORC herbicidal rating for the items I'm about to list?
Answer as a number with no unit attached.

Simply: Cn1c(C(F)(F)F)cc(=O)n(-c2ccc3snc(C(=O)NS(=O)(=O)CCc4ccccc4)c3c2)c1=O [Example 485] , Echinochloa oryzoides (Ard.) Fritsch., ECHORC herbicidal rating = 6.0

Record Cn1c(C(F)(F)F)cc(=O)n(-c2ccc3snc(COC(=O)C(C)(C)C)c3c2)c1=O [Example 498] ; system Echinochloa oryzoides (Ard.) Fritsch.; ECHORC herbicidal rating = 3.0

Recorded ECHORC herbicidal rating for Cn1c(C(F)(F)F)cc(=O)n(-c2ccc3snc(COC(=O)c4ccncc4)c3c2)c1=O [Example 463] on Echinochloa oryzoides (Ard.) Fritsch. was 6.0

Measured ECHORC herbicidal rating (Echinochloa oryzoides (Ard.) Fritsch.), entry COC(=O)COc1cc(C)c(I)cc1-c1nsc2ccc(-n3c(=O)cc(C(F)(F)F)n(C)c3=O)cc12 [Example 469] : 9.0

Echinochloa oryzoides (Ard.) Fritsch. data for COC(=O)C(C)(C)c1nsc2ccc(-n3c(=O)cc(C(F)(F)F)n(C)c3=O)cc12 [Example 490] ; its ECHORC herbicidal rating: 9.0

Form: item Cc1ccc(OC(C)(C)C(=O)O)c(-c2nsc3ccc(-n4c(=O)cc(C(F)(F)F)n(C)c4=O)cc23)c1 [Example 515] ; test system Echinochloa oryzoides (Ard.) Fritsch.; ECHORC herbicidal rating: 6.0

Summary: CC(C)NS(=O)(=O)NC(=O)c1nsc2ccc(-n3c(=O)cc(C(F)(F)F)n(C)c3=O)cc12 [Example 508] , Echinochloa oryzoides (Ard.) Fritsch., ECHORC herbicidal rating = 5.0
